Measured IC50 (InsR (Homo sapiens, UniProt P06213))

# example entries with known answers
Cc1ccc(OC[C@H](O)CNc2cc[nH]c(=O)c2-c2nc3c(C)c4c(cc3[nH]2)C(=O)N(C2CCN(C)CC2)C4=O)c(C)c1Cl :: < 500 nM
Cc1c(Cl)cccc1OC[C@H](O)CNc1cc[nH]c(=O)c1-c1nc2cc3c(cc2[nH]1)C(=O)N(CC(C)(C)CN(C)C)C3=O :: < 500 nM
O=C1c2cc3nc(-c4c(NC[C@@H](O)c5cccc(Cl)c5)cc[nH]c4=O)[nH]c3cc2C(=O)N1[C@@H]1CN2CCC1CC2 :: < 500 nM
CN1CCC(N2Cc3cc4nc(-c5c(NC[C@@H](O)COc6ccccc6C(F)(F)F)cc[nH]c5=O)[nH]c4cc3C2=O)CC1 :: < 500 nM
CN1CCC(N2C(=O)c3cc4nc(-c5c(NC[C@@H](O)COc6cccc(C(F)(F)F)c6)ccnc5O)[nH]c4cc3C2=O)CC1 :: 500 to 5000 nM

Attention now shifts to the item below.
So what's the measured IC50 for this one? CN1CCN(CCCN2C(=O)c3cc4nc(-c5c(NC[C@@H](O)c6cccc(Cl)c6)cc[nH]c5=O)[nH]c4cc3C2=O)CC1
500 to 5000 nM

###

Measured pIC50 (UniProt P06213)
pIC50: −log10 of the molar value.

# example entries with known answers
CN1CCC(N2Cc3cc4[nH]c(-c5c(NC[C@@H](O)COc6c(F)cc(F)cc6Br)cc[nH]c5=O)nc4cc3C2=O)CC1 :: > 6.30
CN(C)CCc1ncccc1OC[C@H](O)CNc1ccnc(O)c1-c1nc2cc3c(cc2[nH]1)C(=O)N(C1CCN(C)CC1)C3=O :: 5.30 to 6.30

Request body: readout pIC50, system UniProt P06213, query CN1CCC(N2C(=O)c3cc4nc(-c5c(NC[C@@H](O)COc6ccc7ccccc7c6)cc[nH]c5=O)[nH]c4cc3C2=O)CC1 . Return the value.
5.30 to 6.30

Request body: readout pIC50, system UniProt P06213, query Cc1ccc(OC[C@H](O)CNc2ccnc(O)c2-c2nc3cc4c(cc3[nH]2)C(=O)N(C2CCN(C)CC2)C4=O)c2c1CCC2 . Return the value.
> 6.30

Request body: readout pIC50, system UniProt P06213, query Cc1ncccc1OC[C@H](O)CNc1ccnc(O)c1-c1nc2cc3c(cc2[nH]1)C(=O)N(C1CCN(C)CC1)C3=O . Return the value.
5.30 to 6.30

Request body: readout pIC50, system UniProt P06213, query Cc1ccc(OC[C@H](O)CNc2cc[nH]c(=O)c2-c2nc3cc4c(cc3[nH]2)C(=O)N(CC2CCN(CCO)CC2)C4=O)c(C)c1 . Return the value.
> 6.30

###

- tested-system: Alk (Homo sapiens)
- Construct: 6×His- or GST-tagged kinase domain fragments of the corresponding RTKs expressed in baculovirus system; host or cells: baculovirus system
- Sequence (Q9UM73 1116-1392 limits assumed, species assumed): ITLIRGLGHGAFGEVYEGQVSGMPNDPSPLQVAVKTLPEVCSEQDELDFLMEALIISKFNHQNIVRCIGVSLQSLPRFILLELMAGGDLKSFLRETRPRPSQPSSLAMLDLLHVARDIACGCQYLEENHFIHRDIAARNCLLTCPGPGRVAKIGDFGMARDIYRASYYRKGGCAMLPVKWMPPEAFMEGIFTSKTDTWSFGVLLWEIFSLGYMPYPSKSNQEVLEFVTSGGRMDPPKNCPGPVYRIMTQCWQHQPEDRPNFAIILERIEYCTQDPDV
- assay-details: Tyrosine kinase assay (Kinase-Glo or AlphaScreen), Alk
- setup-conditions: biochemical tyrosine kinase assay
pIC50: −log10 of the molar value.
Parameter: pIC50. Scope: all listed entries.

# example entries with known answers
CN1CCC(N2C(=O)c3cc4nc(-c5c(N[C@@H](CO)Cc6c[nH]cn6)cc[nH]c5=O)[nH]c4cc3C2=O)CC1 :: 4.82 to 5.30
CN1CCC(N2Cc3cc4[nH]c(-c5c(NC[C@@H](O)COc6cc(F)c(F)cc6Br)cc[nH]c5=O)nc4cc3C2=O)CC1 :: 5.30 to 6.30

So what's the measured pIC50 for this one? CN1CCC(N2C(=O)c3cc4nc(-c5c(NC[C@@H](O)Cn6cnc7ccccc76)ccnc5O)[nH]c4cc3C2=O)CC1
5.30 to 6.30

###

- tested-system: UniProtKB P06213
pIC50: −log10 of the molar value.
quantity: pIC50

# example entries with known answers
O=C1c2cc3nc(-c4c(NC[C@@H](O)c5cccc(Cl)c5)ccnc4O)[nH]c3cc2C(=O)N1CCN1CCOCC1 [compound 8] :: 5.30 to 6.30
CN1CCC(N2Cc3cc4nc(-c5c(N[C@@H](CO)Cc6ccccc6)cc[nH]c5=O)[nH]c4cc3C2=O)CC1 [compound 160] :: > 6.30

Attention now shifts to the item below.
So what's the measured pIC50 for this one? COc1ccc(OC[C@H](O)CNc2cc[nH]c(=O)c2-c2nc3c(C)c4c(cc3[nH]2)C(=O)N(C2CCN(C)CC2)C4=O)c(C)c1Cl [compound 138]
> 6.30

###

pIC50: −log10 of the molar value.
Measured pIC50 (InsR (Homo sapiens, UniProt P06213))

# example entries with known answers
Cc1ccc(OC[C@@H](O)CNc2cc[nH]c(=O)c2-c2nc3cc4c(cc3[nH]2)C(=O)N([C@@H]2CCN(C)C2)C4=O)c(C)c1 :: > 6.30
O=C1c2cc3nc(-c4c(NC[C@@H](O)c5cccc(Cl)c5)cc[nH]c4=O)[nH]c3cc2C(=O)N1C(CO)CO :: > 6.30

Attention now shifts to the item below.
Request body: readout pIC50, system InsR (Homo sapiens, UniProt P06213), query CSCc1cc(C)cc(C)c1OC[C@H](O)CNc1cc[nH]c(=O)c1-c1nc2cc3c(cc2[nH]1)C(=O)N(C1CCN(C)CC1)C3=O . Return the value.
4.82 to 5.30

###

- tested-system: Jak2 (Homo sapiens, UniProt O60674)
- Construct: 6×His- or GST-tagged kinase domain fragments of the corresponding RTKs expressed in baculovirus system; host or cells: baculovirus system
- Sequence (O60674 849-1124 limits assumed, species assumed): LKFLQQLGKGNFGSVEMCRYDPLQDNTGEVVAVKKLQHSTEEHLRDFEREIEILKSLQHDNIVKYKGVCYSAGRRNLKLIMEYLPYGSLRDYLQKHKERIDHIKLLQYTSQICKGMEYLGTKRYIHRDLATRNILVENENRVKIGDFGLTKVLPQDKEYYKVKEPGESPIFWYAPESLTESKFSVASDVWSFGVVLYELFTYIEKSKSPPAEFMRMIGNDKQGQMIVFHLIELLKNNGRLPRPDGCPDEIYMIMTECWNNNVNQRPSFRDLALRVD
- assay-details: Tyrosine kinase assay (Kinase-Glo or AlphaScreen), Jak2
- setup-conditions: biochemical tyrosine kinase assay
quantity: IC50

# example entries with known answers
CN1CCC(N2Cc3cc4nc(-c5c(NC[C@@H](O)COc6cc7c(cc6Cl)OCO7)cc[nH]c5=O)[nH]c4cc3C2=O)CC1 :: < 500 nM
COc1ccc(OC[C@H](O)CNc2cc[nH]c(=O)c2-c2nc3cc4c(cc3[nH]2)CN(C2CCN(C)CC2)C4=O)c(Cl)c1 :: < 500 nM

Attention now shifts to the item below.
So what's the measured IC50 for this one? CN1CCC(N2C(=O)c3cc4nc(-c5c(NC[C@@H](O)COc6cccc7[nH]ccc67)ccnc5O)[nH]c4cc3C2=O)CC1
500 to 5000 nM

###

Measured IC50 (InsR (Homo sapiens, UniProt P06213))

Request body: readout IC50, system InsR (Homo sapiens, UniProt P06213), query Cc1ccc(OC[C@H](O)CNc2cc[nH]c(=O)c2-c2nc3cc4c(cc3[nH]2)C(=O)N(C2CCNCC2)C4=O)c(C)c1 . Return the value.
< 0.5 µM

Request body: readout IC50, system InsR (Homo sapiens, UniProt P06213), query Cc1cc(C)c(OC[C@H](O)CNc2cc[nH]c(=O)c2-c2nc3cc4c(cc3[nH]2)C(=O)N(C2CCN(C)CC2)C4=O)c(C)c1 . Return the value.
< 0.5 µM

Request body: readout IC50, system InsR (Homo sapiens, UniProt P06213), query Cc1ccc(OC[C@H](O)CNc2cc[nH]c(=O)c2-c2nc3c(C)c4c(cc3[nH]2)C(=O)N(C2CCN(C)CC2)C4=O)c(C)c1 . Return the value.
< 0.5 µM

###

pIC50: −log10 of the molar value.
Measured pIC50 (InsR (Homo sapiens))

# example entries with known answers
O=C1c2cc3nc(-c4c(NC[C@@H](O)c5cccc(Cl)c5)cc[nH]c4=O)[nH]c3cc2C(=O)N1CCO :: 5.30 to 6.30
CCN1CCC(N2C(=O)c3cc4nc(-c5c(NC[C@@H](O)COc6ccc(C)cc6C)cc[nH]c5=O)[nH]c4cc3C2=O)CC1 :: 5.30 to 6.30
Cc1ccc(OCC(O)CNc2ccnc(O)c2-c2nc3cc4c(cc3[nH]2)C(=O)N(CCCn2cccn2)C4=O)c(C)c1 (stereo not drawn) :: < 4.82
CC(=N)N1CCC(N2C(=O)c3cc4nc(-c5c(NC[C@@H](O)COc6ccc(C)cc6C)cc[nH]c5=O)[nH]c4cc3C2=O)CC1 :: > 6.30
CN1CCC(N2C(=O)c3cc4nc(-c5c(NC[C@@H](O)COc6ccc7c8c6CCCN8CCC7)cc[nH]c5=O)[nH]c4cc3C2=O)CC1 :: 4.82 to 5.30

Request body: readout pIC50, system InsR (Homo sapiens), query CN1CCC(N2C(=O)c3cc4nc(-c5c(NC[C@@H](O)COc6cccc7[nH]ccc67)ccnc5O)[nH]c4cc3C2=O)CC1 . Return the value.
> 6.30

###

- tested-system: IGF1 receptor (Homo sapiens)
- Construct: MCF7 human breast cancer cells expressing IGF1 receptor; endogenous in cells
- Sequence (P08069 741-1367 limits assumed): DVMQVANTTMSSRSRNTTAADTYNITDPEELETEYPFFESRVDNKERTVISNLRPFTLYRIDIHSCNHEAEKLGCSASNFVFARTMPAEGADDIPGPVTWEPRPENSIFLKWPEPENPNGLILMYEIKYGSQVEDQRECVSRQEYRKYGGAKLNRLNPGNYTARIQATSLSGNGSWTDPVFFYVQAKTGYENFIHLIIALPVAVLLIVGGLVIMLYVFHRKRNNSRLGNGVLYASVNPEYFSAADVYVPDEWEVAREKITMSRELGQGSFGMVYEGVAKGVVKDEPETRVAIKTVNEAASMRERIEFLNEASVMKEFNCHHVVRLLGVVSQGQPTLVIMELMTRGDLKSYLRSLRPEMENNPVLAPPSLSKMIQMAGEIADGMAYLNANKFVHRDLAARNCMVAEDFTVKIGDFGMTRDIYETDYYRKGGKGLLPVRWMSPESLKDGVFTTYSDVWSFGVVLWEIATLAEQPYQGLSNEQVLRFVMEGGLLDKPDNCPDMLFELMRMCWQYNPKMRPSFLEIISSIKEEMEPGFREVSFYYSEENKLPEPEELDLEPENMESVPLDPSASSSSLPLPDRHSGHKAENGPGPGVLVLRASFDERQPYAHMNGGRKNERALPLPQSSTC
- Sequence (P08069 31-736 partner limits assumed): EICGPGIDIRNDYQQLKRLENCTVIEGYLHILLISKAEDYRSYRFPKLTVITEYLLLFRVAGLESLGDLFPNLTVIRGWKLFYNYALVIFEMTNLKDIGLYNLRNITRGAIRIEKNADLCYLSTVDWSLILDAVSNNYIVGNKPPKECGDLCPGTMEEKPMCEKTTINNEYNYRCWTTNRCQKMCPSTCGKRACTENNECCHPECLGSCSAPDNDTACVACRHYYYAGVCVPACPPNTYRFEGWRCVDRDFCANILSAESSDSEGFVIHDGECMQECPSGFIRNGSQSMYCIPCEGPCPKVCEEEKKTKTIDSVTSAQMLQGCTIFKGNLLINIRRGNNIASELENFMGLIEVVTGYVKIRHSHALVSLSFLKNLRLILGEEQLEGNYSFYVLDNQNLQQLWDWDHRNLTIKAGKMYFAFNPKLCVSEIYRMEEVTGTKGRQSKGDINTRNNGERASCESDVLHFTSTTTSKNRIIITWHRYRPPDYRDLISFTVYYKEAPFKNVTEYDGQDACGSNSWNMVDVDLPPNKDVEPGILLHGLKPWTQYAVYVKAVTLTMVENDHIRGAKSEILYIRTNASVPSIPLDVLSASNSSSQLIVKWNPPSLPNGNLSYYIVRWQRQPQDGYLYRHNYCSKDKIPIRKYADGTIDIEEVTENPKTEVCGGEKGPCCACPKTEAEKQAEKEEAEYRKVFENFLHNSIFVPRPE
- assay-details: ELISA-based assay of IGF1 receptor autophosphorylation inhibition in cells
- setup-conditions: IGF1R phosphorylation inhibition in MCF7 cells
pIC50: −log10 of the molar value.
quantity: pIC50

# example entries with known answers
Cc1c(Cl)cccc1OC[C@H](O)CNc1cc[nH]c(=O)c1-c1nc2cc3c(cc2[nH]1)C(=O)N(C1CCN(C)CC1)C3=O :: 5.30 to 6.30
Cc1ccc(OCC(O)CNc2cc[nH]c(=O)c2-c2nc3cc4c(cc3[nH]2)C(=O)N(C2CCN(C)CC2)C4=O)c(C)c1 (centres unmarked) :: 5.30 to 6.30
CN1CCC(N2C(=O)c3cc4nc(-c5c(NC[C@H](O)COc6ccc(F)cc6)cc[nH]c5=O)[nH]c4cc3C2=O)CC1 :: < 4.82
O=C1c2cc3nc(-c4c(NC[C@@H](O)c5cccc(Cl)c5)cc[nH]c4=O)[nH]c3cc2C(=O)N1[C@H]1CN2CCC1CC2 :: < 4.82
Cc1ncsc1CCN1C(=O)c2cc3nc(-c4c(NC[C@@H](O)c5cccc(Cl)c5)cc[nH]c4=O)[nH]c3cc2C1=O :: 4.82 to 5.30

Request body: readout pIC50, system IGF1 receptor (Homo sapiens), query CN1CCC(N2C(=O)c3cc4nc(-c5c(NC[C@@H](O)COc6cccc7ccccc67)cc[nH]c5=O)[nH]c4cc3C2=O)CC1 . Return the value.
5.30 to 6.30

Request body: readout pIC50, system IGF1 receptor (Homo sapiens), query CN1CCC(N2C(=O)c3cc4nc(-c5c(NC[C@@H](O)COc6ccc7ccccc7c6)cc[nH]c5=O)[nH]c4cc3C2=O)CC1 . Return the value.
5.30 to 6.30

Request body: readout pIC50, system IGF1 receptor (Homo sapiens), query Cc1cc(C)c(OC[C@H](O)CNc2cc[nH]c(=O)c2-c2nc3cc4c(cc3[nH]2)C(=O)N(C2CCN(C)CC2)C4=O)c(C)c1 . Return the value.
4.82 to 5.30
